Measured Ratio by item
- assay target: Fatty-acid amide hydrolase 1 (Rattus norvegicus)
- method description: Ratio of Kinact to Ki for histidine6-tagged rat FAAH

- compound: "Cc1c(CN2CCN(C(=O)Nc3cccnc3)CC2)sc2ccc(F)cc12"
  relation operator: "="
  Ratio, M⁻¹ s⁻¹: 779
- compound: "CCCCNC(=O)N1CCN(Cc2sc3ccccc3c2C)CC1"
  relation operator: "="
  Ratio, M⁻¹ s⁻¹: 13
- compound: "CCc1c(CN2CCN(C(=O)Nc3cccnc3)CC2)sc2ccccc12"
  relation operator: "="
  Ratio, M⁻¹ s⁻¹: 774
- compound: "Cc1c(CN2CCN(C(=O)Nc3cccnc3)CC2)sc2ccccc12"
  relation operator: "="
  Ratio, M⁻¹ s⁻¹: 1080
- compound: "C=C(c1sc2ccccc2c1C)C1CCN(C(=O)Nc2cccnc2)CC1"
  relation operator: "="
  Ratio, M⁻¹ s⁻¹: 991
- compound: "CC(=O)Nc1ccc(NC(=O)N2CCN(Cc3sc4ccccc4c3C)CC2)cn1"
  relation operator: "<"
  Ratio, M⁻¹ s⁻¹: 10
- compound: "Cc1ccc(NC(=O)N2CCN(Cc3sc4ccc(F)cc4c3C)CC2)cn1"
  relation operator: "="
  Ratio, M⁻¹ s⁻¹: 260
- compound: "CCOc1ccc2c(C)c(CN3CCN(C(=O)Nc4cccnc4)CC3)sc2c1"
  relation operator: "<"
  Ratio, M⁻¹ s⁻¹: 10
- compound: "Cc1ccc2sc(CN3CCN(C(=O)Nc4ccc(C)nc4)CC3)c(C)c2c1"
  relation operator: "="
  Ratio, M⁻¹ s⁻¹: 183
- compound: "CCc1c(CC2CCN(C(=O)Nc3cccnc3)CC2)sc2ccccc12"
  relation operator: "="
  Ratio, M⁻¹ s⁻¹: 1010
- compound: "Cc1c(CN2CCN(C(=O)NC3CCCCC3)CC2)sc2ccccc12"
  relation operator: "<"
  Ratio, M⁻¹ s⁻¹: 10
- compound: "Cc1c(CN2CCN(C(=O)Nc3cccnn3)CC2)sc2ccccc12"
  relation operator: "="
  Ratio, M⁻¹ s⁻¹: 191
- compound: "Cc1ccc2sc(CN3CCN(C(=O)Nc4cccnc4)CC3)c(C)c2c1"
  relation operator: "="
  Ratio, M⁻¹ s⁻¹: 557
- compound: "Cc1c(CC2CCN(C(=O)Nc3cccnc3)CC2)sc2cccc(F)c12"
  relation operator: "="
  Ratio, M⁻¹ s⁻¹: 1550
- compound: "Cc1c(C(=O)C2CCN(C(=O)Nc3cccnc3)CC2)sc2ccccc12"
  relation operator: "="
  Ratio, M⁻¹ s⁻¹: 1230
- compound: "Cc1c(CN2CCN(C(=O)Nc3cccnc3)CC2)sc2ccc(C(F)(F)F)cc12"
  relation operator: "="
  Ratio, M⁻¹ s⁻¹: 219
- compound: "CCN(CC)c1ccc(NC(=O)N2CCN(Cc3sc4ccccc4c3C)CC2)cn1"
  relation operator: "="
  Ratio, M⁻¹ s⁻¹: 1430
- compound: "Cc1c(CN2CCN(C(=O)Nc3ccccn3)CC2)sc2ccccc12"
  relation operator: "="
  Ratio, M⁻¹ s⁻¹: 635
- compound: "CNC(=O)CNC(=O)N1CCN(Cc2sc3ccccc3c2C)CC1"
  relation operator: "<"
  Ratio, M⁻¹ s⁻¹: 10
- compound: "Cc1c(C(C)C2CCN(C(=O)Nc3cccnc3)CC2)sc2ccccc12 (stereo in doubt; 17-E1)"
  relation operator: "<"
  Ratio, M⁻¹ s⁻¹: 10
- compound: "CNc1ccc(NC(=O)N2CCN(Cc3sc4ccccc4c3C)CC2)cn1"
  relation operator: "="
  Ratio, M⁻¹ s⁻¹: 635
- compound: "Cc1c(CC2CCN(C(=O)Nc3cccnc3)CC2)sc2ccc(F)cc12"
  relation operator: "="
  Ratio, M⁻¹ s⁻¹: 729

###

- assay target: Fatty-acid amide hydrolase 1 (Homo sapiens) (UniProt O00519)
- Sequence (O00519 whole entry): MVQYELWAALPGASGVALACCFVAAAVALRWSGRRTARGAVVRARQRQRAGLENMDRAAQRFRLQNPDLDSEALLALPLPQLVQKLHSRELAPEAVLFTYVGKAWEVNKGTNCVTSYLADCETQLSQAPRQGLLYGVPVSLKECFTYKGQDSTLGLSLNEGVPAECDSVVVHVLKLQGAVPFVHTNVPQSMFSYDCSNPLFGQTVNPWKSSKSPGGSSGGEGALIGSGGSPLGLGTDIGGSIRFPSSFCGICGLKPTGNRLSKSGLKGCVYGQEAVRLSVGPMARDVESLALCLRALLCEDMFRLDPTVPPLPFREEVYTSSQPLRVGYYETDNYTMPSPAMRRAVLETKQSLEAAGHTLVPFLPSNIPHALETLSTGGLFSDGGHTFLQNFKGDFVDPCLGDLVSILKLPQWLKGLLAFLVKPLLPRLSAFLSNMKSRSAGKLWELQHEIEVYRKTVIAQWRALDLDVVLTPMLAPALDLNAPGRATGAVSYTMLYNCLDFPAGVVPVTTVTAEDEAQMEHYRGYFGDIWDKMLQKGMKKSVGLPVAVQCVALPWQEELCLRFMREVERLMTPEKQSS
- method description: Ratio of Kinact to Ki for histidine6-tagged human FAAH
recorded endpoint: log10 of Ratio (log10 of the value in M⁻¹ s⁻¹)

- smiles representation: "Cc1c(CN2CCN(C(=O)Nc3cccnc3)CC2)sc2ccc(Cl)cc12"
  log10 of Ratio: 3.45
- smiles representation: "Cc1c(CN2CCN(C(=O)Nc3ccc(N(C)C)nc3)CC2)sc2ccccc12"
  log10 of Ratio: 3.38
- smiles representation: "Cc1ccc2sc(CN3CCN(C(=O)Nc4cccnc4)CC3)c(C)c2c1"
  log10 of Ratio: 3.42
- smiles representation: "Cc1c(CN2CCN(C(=O)Nc3ccc(C(F)(F)F)nc3)CC2)sc2ccccc12"
  log10 of Ratio: 1.62
- smiles representation: "Cc1c(CN2CCN(C(=O)Nc3cccnc3)CC2)sc2ccc(F)cc12"
  log10 of Ratio: 3.50
- smiles representation: "Cc1c(CN2CCN(C(=O)Nc3cccnn3)CC2)sc2ccccc12"
  log10 of Ratio: 2.97
- smiles representation: "Cc1c(CN2CCN(C(=O)Nc3cccnc3)CC2)sc2ccc(C(F)(F)F)cc12"
  log10 of Ratio: 3.14
- smiles representation: "Cc1ccc(NC(=O)N2CCN(Cc3sc4ccccc4c3Cl)CC2)cn1"
  log10 of Ratio: 2.95

###

- assay target: Fatty-acid amide hydrolase 1 (Homo sapiens)
- method description: Ratio of Kinact to Ki for histidine6-tagged human FAAH

- molecule: "Cc1c(CN2CCN(C(=O)Nc3ccc(N)nc3)CC2)sc2ccccc12"
  relation operator: "="
  Ratio / M⁻¹ s⁻¹: 1920
- molecule: "Cc1c(C(=O)C2CCN(C(=O)Nc3cccnc3)CC2)sc2ccccc12"
  relation operator: "="
  Ratio / M⁻¹ s⁻¹: 3600
- molecule: "CCNc1ccc(NC(=O)N2CCN(Cc3sc4ccccc4c3C)CC2)cn1"
  relation operator: "="
  Ratio / M⁻¹ s⁻¹: 924
- molecule: "Cc1c(CN2CCN(C(=O)Nc3cccnc3)CC2)sc2cccc(F)c12"
  relation operator: "="
  Ratio / M⁻¹ s⁻¹: 3320
- molecule: "Cc1ccc2sc(CN3CCN(C(=O)Nc4ccc(C)nc4)CC3)c(C)c2c1"
  relation operator: "="
  Ratio / M⁻¹ s⁻¹: 1170
- molecule: "Cc1ccc2sc(CC3CCN(C(=O)Nc4cccnc4)CC3)c(C)c2c1"
  relation operator: "="
  Ratio / M⁻¹ s⁻¹: 3020
- molecule: "CNc1ccc(NC(=O)N2CCN(Cc3sc4ccccc4c3C)CC2)cn1"
  relation operator: "="
  Ratio / M⁻¹ s⁻¹: 1000
- molecule: "CCN(CC)c1ccc(NC(=O)N2CCN(Cc3sc4ccccc4c3C)CC2)cn1"
  relation operator: "="
  Ratio / M⁻¹ s⁻¹: 1560
- molecule: "Cc1c(CN2CCN(C(=O)NC(C)(C)C)CC2)sc2ccccc12"
  relation operator: "<"
  Ratio / M⁻¹ s⁻¹: 10
- molecule: "Cc1ccc(NC(=O)N2CCN(Cc3sc4cccc(F)c4c3C)CC2)cn1"
  relation operator: "="
  Ratio / M⁻¹ s⁻¹: 1980
- molecule: "Cc1ccc2c(Cl)c(CN3CCN(C(=O)Nc4ccc(C)nc4)CC3)sc2c1"
  relation operator: "="
  Ratio / M⁻¹ s⁻¹: 73
- molecule: "CCc1c(CC2CCN(C(=O)Nc3cccnc3)CC2)sc2ccccc12"
  relation operator: "="
  Ratio / M⁻¹ s⁻¹: 1670
- molecule: "CCc1c(CN2CCN(C(=O)Nc3cccnc3)CC2)sc2ccccc12"
  relation operator: "="
  Ratio / M⁻¹ s⁻¹: 1400
- molecule: "CCc1c(CN2CCN(C(=O)Nc3cccnc3)CC2)sc2ccc(F)cc12"
  relation operator: "="
  Ratio / M⁻¹ s⁻¹: 1810
- molecule: "Cc1c(C(C)C2CCN(C(=O)Nc3cccnc3)CC2)sc2ccccc12 (racemic)"
  relation operator: "="
  Ratio / M⁻¹ s⁻¹: 114
- molecule: "Cc1c(CN2CCN(C(=O)Nc3ccc(-c4ccccc4)nc3)CC2)sc2ccccc12"
  relation operator: "<"
  Ratio / M⁻¹ s⁻¹: 10
- molecule: "Cc1c(CN2CCN(C(=O)NCc3ccccc3)CC2)sc2ccccc12"
  relation operator: "<"
  Ratio / M⁻¹ s⁻¹: 10
- molecule: "Cc1c(CN2CCN(C(=O)NC(C)C)CC2)sc2ccccc12"
  relation operator: "="
  Ratio / M⁻¹ s⁻¹: 70
- molecule: "O=C(Nc1cccnc1)N1CCN(Cc2cc3ccccc3s2)CC1"
  relation operator: "="
  Ratio / M⁻¹ s⁻¹: 695
- molecule: "Cc1c(CN2CCN(C(=O)Nc3ccccc3)CC2)sc2ccccc12"
  relation operator: "="
  Ratio / M⁻¹ s⁻¹: 1920
- molecule: "Cc1c(CN2CCN(C(=O)Nc3ccccn3)CC2)sc2ccccc12"
  relation operator: "="
  Ratio / M⁻¹ s⁻¹: 1000
- molecule: "C=C(c1sc2ccccc2c1C)C1CCN(C(=O)Nc2cccnc2)CC1"
  relation operator: "="
  Ratio / M⁻¹ s⁻¹: 5440
- molecule: "Cc1c(C(O)C2CCN(C(=O)Nc3cccnc3)CC2)sc2ccccc12 (racemic)"
  relation operator: "="
  Ratio / M⁻¹ s⁻¹: 200
- molecule: "COc1ccc2c(C)c(CN3CCN(C(=O)Nc4cccnc4)CC3)sc2c1"
  relation operator: "="
  Ratio / M⁻¹ s⁻¹: 73

Data provenance is ChEMBL document CHEMBL1152917.
